System: Saccharomyces cerevisiae
measurementNotes: protein stability index of tFT-peptide fusion (C-terminal peptide) (PSI (0-1 scale)); higher = more stable (slower turnover)
measurementContext: genetic background: wild type; temperature: 30 C
Please mark True if the recorded protein stability index is equal to or greater than 0.3, and False if it falls below.

input: Is it the case that CWYVCSFWPYVV has protein stability index reaching or exceeding 0.3?
output: False

input: Is it the case that LSILLFVQFFPP has protein stability index reaching or exceeding 0.3?
output: False

input: Is it the case that LFFFVFFVLFSV has protein stability index reaching or exceeding 0.3?
output: False

input: Is it the case that VAFLYCHFFYCI has protein stability index reaching or exceeding 0.3?
output: True

input: Is it the case that LFLSAFFYLLVW has protein stability index reaching or exceeding 0.3?
output: False

input: Is it the case that YRNVLLVLNYWS has protein stability index reaching or exceeding 0.3?
output: True

input: Is it the case that VVPWLGYVSCFS has protein stability index reaching or exceeding 0.3?
output: True

input: Is it the case that SFVLLSSFLVFV has protein stability index reaching or exceeding 0.3?
output: False

input: Is it the case that SLRPFFPPLPRP has protein stability index reaching or exceeding 0.3?
output: True

input: Is it the case that FLLYRFSLVGCF has protein stability index reaching or exceeding 0.3?
output: False

input: Is it the case that FVGLFEYILLFV has protein stability index reaching or exceeding 0.3?
output: False

input: Is it the case that LRCRAATSRTVS has protein stability index reaching or exceeding 0.3?
output: True

input: Is it the case that LFFVFCLFFIYF has protein stability index reaching or exceeding 0.3?
output: False

input: Is it the case that GQSRLVADLRQV has protein stability index reaching or exceeding 0.3?
output: True

input: Is it the case that CVSFFRCLFLIV has protein stability index reaching or exceeding 0.3?
output: False

input: Is it the case that PLPSEKAPTLLL has protein stability index reaching or exceeding 0.3?
output: True

input: Is it the case that WFCYFSLYVFLL has protein stability index reaching or exceeding 0.3?
output: False

* * *

Tested on: Saccharomyces cerevisiae;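 further: PSI is a weighted mean of sequencing reads over stability bins, variants kept only with over 10 reads, mCherry proximal and sfGFP distal, peptide attached via GGGS linker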
measurementNotes: protein stability index of tFT-peptide fusion (C-terminal peptide) (PSI (0-1 scale)); higher = more stable (slower turnover)
measurementContext: genetic background: das1 deletion; temperature: 37 C
measurementLabel: protein stability index
Keep the answer to the number alone.

input: What measured protein stability index is associated with SDLQVMKLRSVC on Saccharomyces cerevisiae?
output: 0.714

input: What measured protein stability index is associated with RIVSGVVLLVFV on Saccharomyces cerevisiae?
output: 0.523

input: What measured protein stability index is associated with TSFSSGEALGVG on Saccharomyces cerevisiae?
output: 0.5

input: What measured protein stability index is associated with CRRQLKVLKSMS on Saccharomyces cerevisiae?
output: 0.689

input: What measured protein stability index is associated with LICRFLFFVCVG on Saccharomyces cerevisiae?
output: 0.507

input: What measured protein stability index is associated with LVLLIQKFLTDK on Saccharomyces cerevisiae?
output: 0.695

input: What measured protein stability index is associated with LCYVLLWLLCRS on Saccharomyces cerevisiae?
output: 0.512

input: What measured protein stability index is associated with LDLPFESGIACF on Saccharomyces cerevisiae?
output: 0.436

input: What measured protein stability index is associated with GGYCQMFFLYFR on Saccharomyces cerevisiae?
output: 0.0948

input: What measured protein stability index is associated with YVLLDFFFFFLV on Saccharomyces cerevisiae?
output: 0.356

input: What measured protein stability index is associated with LFFRLLCAFLFL on Saccharomyces cerevisiae?
output: 0.584

input: What measured protein stability index is associated with NFSLFVHFLGLC on Saccharomyces cerevisiae?
output: 0.687

input: What measured protein stability index is associated with CILYLSWIIFRA on Saccharomyces cerevisiae?
output: 0.343

input: What measured protein stability index is associated with YLFFVCLHLKAG on Saccharomyces cerevisiae?
output: 0.417

input: What measured protein stability index is associated with GVCWCVLFVVGC on Saccharomyces cerevisiae?
output: 0.484

input: What measured protein stability index is associated with LFFVFCLFFIYF on Saccharomyces cerevisiae?
output: 0.301

input: What measured protein stability index is associated with LNTVALIRIVVS on Saccharomyces cerevisiae?
output: 0.234

input: What measured protein stability index is associated with RVGSSLIVVYCV on Saccharomyces cerevisiae?
output: 0.502

input: What measured protein stability index is associated with ALSGLARFIVCH on Saccharomyces cerevisiae?
output: 0.427

input: What measured protein stability index is associated with YNKIRNNEKKMT on Saccharomyces cerevisiae?
output: 0.712

input: What measured protein stability index is associated with LFKFCLGIPLFL on Saccharomyces cerevisiae?
output: 0.576

input: What measured protein stability index is associated with GQSRLVADLRQV on Saccharomyces cerevisiae?
output: 0.678

input: What measured protein stability index is associated with CFLSWSLRFFIL on Saccharomyces cerevisiae?
output: 0.554

input: What measured protein stability index is associated with ILLICLQFFNLF on Saccharomyces cerevisiae?
output: 0.527

input: What measured protein stability index is associated with FYFMGFFFGLGM on Saccharomyces cerevisiae?
output: 0.617

input: What measured protein stability index is associated with VCSCLVLVFCCC on Saccharomyces cerevisiae?
output: 0.318

input: What measured protein stability index is associated with PLRRPPPRPPWP on Saccharomyces cerevisiae?
output: 0.703

input: What measured protein stability index is associated with FCSPFFFFLFRL on Saccharomyces cerevisiae?
output: 0.427

input: What measured protein stability index is associated with FYLSFWFLIFFF on Saccharomyces cerevisiae?
output: 0.353

input: What measured protein stability index is associated with PSPHRAPPGGHP on Saccharomyces cerevisiae?
output: 0.727

input: What measured protein stability index is associated with RKKIRTYINENV on Saccharomyces cerevisiae?
output: 0.766

input: What measured protein stability index is associated with LLRIFLPLLYLL on Saccharomyces cerevisiae?
output: 0.387

input: What measured protein stability index is associated with CGGLFDVALGVG on Saccharomyces cerevisiae?
output: 0.522

input: What measured protein stability index is associated with YVSSFSLVVLLS on Saccharomyces cerevisiae?
output: 0.506

input: What measured protein stability index is associated with DLLKAILKIKSL on Saccharomyces cerevisiae?
output: 0.748

input: What measured protein stability index is associated with FSLSLFPYPFSL on Saccharomyces cerevisiae?
output: 0.765

input: What measured protein stability index is associated with VIAYSLLSWGDF on Saccharomyces cerevisiae?
output: 0.319

input: What measured protein stability index is associated with FSCSRNVLVTVV on Saccharomyces cerevisiae?
output: 0.344

input: What measured protein stability index is associated with VFVMRDGFLRKV on Saccharomyces cerevisiae?
output: 0.748

input: What measured protein stability index is associated with GGLLSQLLRSIG on Saccharomyces cerevisiae?
output: 0.743

input: What measured protein stability index is associated with LSRLIFKVSVLM on Saccharomyces cerevisiae?
output: 0.6

input: What measured protein stability index is associated with SFSRLWSLFRCL on Saccharomyces cerevisiae?
output: 0.752

input: What measured protein stability index is associated with MRVYLVLWADSC on Saccharomyces cerevisiae?
output: 0.361

input: What measured protein stability index is associated with CSFHFSLFFLRV on Saccharomyces cerevisiae?
output: 0.459

input: What measured protein stability index is associated with SGFLNVGYLWVC on Saccharomyces cerevisiae?
output: 0.644

input: What measured protein stability index is associated with RIHRRLIKNKRV on Saccharomyces cerevisiae?
output: 0.739

input: What measured protein stability index is associated with LHIHGAGIVCAG on Saccharomyces cerevisiae?
output: 0.579

input: What measured protein stability index is associated with PFPRCRLIFFFM on Saccharomyces cerevisiae?
output: 0.742

input: What measured protein stability index is associated with GFLGMFFFWFAL on Saccharomyces cerevisiae?
output: 0.635

input: What measured protein stability index is associated with CWYVCSFWPYVV on Saccharomyces cerevisiae?
output: 0.69

input: What measured protein stability index is associated with VSFLVSIFVSGV on Saccharomyces cerevisiae?
output: 0.372

input: What measured protein stability index is associated with CPMFVKFFFCLY on Saccharomyces cerevisiae?
output: 0.508

input: What measured protein stability index is associated with FGPVLLVSFLFS on Saccharomyces cerevisiae?
output: 0.422

input: What measured protein stability index is associated with VLLCASPMLAVV on Saccharomyces cerevisiae?
output: 0.423

input: What measured protein stability index is associated with GRGFVLSVAVVA on Saccharomyces cerevisiae?
output: 0.502

input: What measured protein stability index is associated with FLFCACIRVFSY on Saccharomyces cerevisiae?
output: 0.228

input: What measured protein stability index is associated with RSLRVLLPLYFR on Saccharomyces cerevisiae?
output: 0.271

input: What measured protein stability index is associated with INKKKKMIITKI on Saccharomyces cerevisiae?
output: 0.742

input: What measured protein stability index is associated with WFIFTITSVAGL on Saccharomyces cerevisiae?
output: 0.0442

input: What measured protein stability index is associated with LLCLCSLPVFAS on Saccharomyces cerevisiae?
output: 0.412

input: What measured protein stability index is associated with FGGYLRAGVFLT on Saccharomyces cerevisiae?
output: 0.721

input: What measured protein stability index is associated with TWGGGRVSLGVG on Saccharomyces cerevisiae?
output: 0.405

input: What measured protein stability index is associated with YSMLGKLVRLVT on Saccharomyces cerevisiae?
output: 0.63

input: What measured protein stability index is associated with DLRRYRTLIPCK on Saccharomyces cerevisiae?
output: 0.48

input: What measured protein stability index is associated with WGRENLTRVKLE on Saccharomyces cerevisiae?
output: 0.725

input: What measured protein stability index is associated with SWGEQDRLTGYI on Saccharomyces cerevisiae?
output: 0.787

input: What measured protein stability index is associated with LEGLLIRVYITF on Saccharomyces cerevisiae?
output: 0.336

input: What measured protein stability index is associated with YVVCFFFKLFYF on Saccharomyces cerevisiae?
output: 0.417

input: What measured protein stability index is associated with SNFDVRRLLVIQ on Saccharomyces cerevisiae?
output: 0.697

input: What measured protein stability index is associated with FHLFIRRSAVIF on Saccharomyces cerevisiae?
output: 0.555

input: What measured protein stability index is associated with PLRKYLRHLLSL on Saccharomyces cerevisiae?
output: 0.735

input: What measured protein stability index is associated with LCVVFCIRTYRV on Saccharomyces cerevisiae?
output: 0.476

input: What measured protein stability index is associated with TYHRSYLLATVV on Saccharomyces cerevisiae?
output: 0.543

input: What measured protein stability index is associated with FFSRIIAILVLM on Saccharomyces cerevisiae?
output: 0.515

input: What measured protein stability index is associated with KHTGTGNAPNCD on Saccharomyces cerevisiae?
output: 0.719

input: What measured protein stability index is associated with LGSYVWVFVYFW on Saccharomyces cerevisiae?
output: 0.323

input: What measured protein stability index is associated with TMSGVTRCVLVL on Saccharomyces cerevisiae?
output: 0.546

input: What measured protein stability index is associated with WSSWFLWVIFRL on Saccharomyces cerevisiae?
output: 0.433

input: What measured protein stability index is associated with PTYSCSIKIQAH on Saccharomyces cerevisiae?
output: 0.55

input: What measured protein stability index is associated with FILFSEMFASSV on Saccharomyces cerevisiae?
output: 0.149

input: What measured protein stability index is associated with PPPLCSTCIRCC on Saccharomyces cerevisiae?
output: 0.354

input: What measured protein stability index is associated with LSRRFSLALFWT on Saccharomyces cerevisiae?
output: 0.707
